- Test system: CYP2D6
- measurement context: human
endpoint: UM (%) dosing recommendation

Examples from the recorded data:
| compound | UM (%) dosing recommendation |
| --- | --- |
| CN[C@H]1CC[C@@H](c2ccc(Cl)c(Cl)c2)c2ccccc21 | 100 |
| O=C(CCCN1CCC(O)(c2ccc(Cl)cc2)CC1)c1ccc(F)cc1 | 126 |
| CNCCCN1c2ccccc2CCc2ccccc21 | 167 |

(1) CCc1nn(CCCN2CCN(c3cccc(Cl)c3)CC2)c(=O)n1CCOc1ccccc1
(2) CC(CN(C)C)CN1c2ccccc2CCc2ccccc21 (centres unmarked)
(3) O=C(NCCN1CCOCC1)c1ccc(Cl)cc1 [moclobemide]
query: Parameters: sort_field (UM (%) dosing recommendation), sort_dir (desc). // ordering of labels required in reply
result: 2, 1, 3
(2: 178%, 1: 113%, 3: 77%)

(a) CN(C)CCCC1(c2ccc(F)cc2)OCc2cc(C#N)ccc21 (centres unmarked)
(b) CN(C)CCC=C1c2ccccc2COc2ccccc21 [doxepin]
query: Returns the identifier with the smallest measured UM (%) dosing recommendation among a and b . Your answer should be the label attached to the chosen record.
result: a
(a: 102%, b: 173%)

(1) O=c1n(CCCN2CCN(c3cccc(Cl)c3)CC2)nc2ccccn12
(2) CN1CCN(C2=Nc3cc(Cl)ccc3Nc3ccccc32)CC1
query: Returns the identifier with the smallest measured UM (%) dosing recommendation among 1 and 2 . Your answer should be the label attached to the chosen record.
result: 2
(2: 84%, 1: 127%)

(a) CN1CCN2c3ncccc3Cc3ccccc3C2C1 (centres unmarked)
(b) OCCN1CCN(CC/C=C2/c3ccccc3Sc3ccc(Cl)cc32)CC1
query: Returns the identifier with the smallest measured UM (%) dosing recommendation among a and b . Your answer should be the label attached to the chosen record.
result: a
